Exercise: state measured Cmax for each of the compounds provided.
Procedure Text: Pharmacokinetics of AS and DHA in rat plasma after single and multiple intravenous AS injections (automated blood sampler, LC-MS/MS)
Assay type: in vivo, Sprague-Dawley rats
Details: male, Sprague-Dawley, rat, plasma, iv, 20 mg/kg, Chinese formulation (AS/NaHCO3), 20 mg/kg i.v. daily for 3 days, male rats, Period 2, Day 3
Numbers only, in ng/mL.

C[C@H]1[C@H](OC(=O)CCC(=O)O)O[C@@H]2O[C@@]3(C)CC[C@H]4[C@H](C)CC[C@@H]1[C@@]24OO3 [AS, artesunate]: 2540

Shift focus to the following entry.
**Query** Indicate the recorded Cmax value for this compound: C[C@H]1[C@@H](O)O[C@@H]2O[C@@]3(C)CC[C@H]4[C@H](C)CC[C@@H]1[C@@]24OO3 [DHA, dihydroartemisinin]
**Result** 2450

----------
Procedure Text: Pharmacokinetics of AS and DHA in rat plasma after single and multiple intravenous AS injections (automated blood sampler, LC-MS/MS)
Format: in vivo, Sprague-Dawley rats
Details: male, Sprague-Dawley, rat, plasma, iv, 20 mg/kg, Chinese formulation (AS/NaHCO3), 20 mg/kg i.v. daily for 3 days, male rats, Period 2, Day 1
For each of the compounds below, state its MRT.
Give bare numbers, in min.

C[C@H]1[C@H](OC(=O)CCC(=O)O)O[C@@H]2O[C@@]3(C)CC[C@H]4[C@H](C)CC[C@@H]1[C@@]24OO3 [AS, artesunate]: 15.6

Next item in the queue.
**Query** Please report MRT for the following compound: C[C@H]1[C@@H](O)O[C@@H]2O[C@@]3(C)CC[C@H]4[C@H](C)CC[C@@H]1[C@@]24OO3 [DHA, dihydroartemisinin]
**Result** 27.6

----------
Procedure Text: Pharmacokinetics of AS and DHA in rat plasma after single and multiple intravenous AS injections (automated blood sampler, LC-MS/MS)
Type: in vivo, Sprague-Dawley rats
Details: male, Sprague-Dawley, rat, plasma, iv, 20 mg/kg, WRAIR formulation (AS/0.3M PBS Buffer), 20 mg/kg i.v. daily for 3 days, male rats, Period 1, Day 3; read-out: t1/2 distribution (converted)
Recorded Metric: half-life (min)
Numbers only, in min.

C[C@H]1[C@@H](O)O[C@@H]2O[C@@]3(C)CC[C@H]4[C@H](C)CC[C@@H]1[C@@]24OO3 [DHA, dihydroartemisinin]: 5.4

Moving on to another compound below.
**Query** Tell me half-life reported for C[C@H]1[C@H](OC(=O)CCC(=O)O)O[C@@H]2O[C@@]3(C)CC[C@H]4[C@H](C)CC[C@@H]1[C@@]24OO3 [AS, artesunate]
**Result** 6

----------
Procedure Text: Pharmacokinetics of AS and DHA in rat plasma after single and multiple intravenous AS injections (automated blood sampler, LC-MS/MS)
Assay type: in vivo, Sprague-Dawley rats
Details: male, Sprague-Dawley, rat, plasma, iv, 20 mg/kg, WRAIR formulation (AS/0.3M PBS Buffer), 20 mg/kg i.v. daily for 3 days, male rats, Period 1, Day 1; read-out: t1/2 distribution (converted)
Give measured half-life for each item. Keep answers brief.
Answers are plain numbers, in min.

C[C@H]1[C@@H](O)O[C@@H]2O[C@@]3(C)CC[C@H]4[C@H](C)CC[C@@H]1[C@@]24OO3 [DHA, dihydroartemisinin]: 7.2

The record that follows has no half-life shown yet.
**Query** Complete the entry with half-life for C[C@H]1[C@H](OC(=O)CCC(=O)O)O[C@@H]2O[C@@]3(C)CC[C@H]4[C@H](C)CC[C@@H]1[C@@]24OO3 [AS, artesunate]
**Result** 4.8

----------
Procedure Text: Pharmacokinetics of AS and DHA in rat plasma after single and multiple intravenous AS injections (automated blood sampler, LC-MS/MS)
Format: in vivo, Sprague-Dawley rats
Details: male, Sprague-Dawley, rat, plasma, iv, 20 mg/kg, Chinese formulation (AS/NaHCO3), 20 mg/kg i.v. daily for 3 days, male rats, Period 2, Day 3
Could you please report measured Tmax for the items listed next?
Answers are plain numbers, in min.

C[C@H]1[C@@H](O)O[C@@H]2O[C@@]3(C)CC[C@H]4[C@H](C)CC[C@@H]1[C@@]24OO3 [DHA, dihydroartemisinin]: 15

Now for a further compound.
**Query** Hello, please tell me recorded Tmax for this one: C[C@H]1[C@H](OC(=O)CCC(=O)O)O[C@@H]2O[C@@]3(C)CC[C@H]4[C@H](C)CC[C@@H]1[C@@]24OO3 [AS, artesunate]
**Result** 4.98

----------
Procedure Text: Pharmacokinetics of AS and DHA in rat plasma after single and multiple intravenous AS injections (automated blood sampler, LC-MS/MS)
Assay type: in vivo, Sprague-Dawley rats
Details: male, Sprague-Dawley, rat, plasma, iv, 20 mg/kg, Chinese formulation (AS/NaHCO3), 20 mg/kg i.v. daily for 3 days, male rats, Period 2, Day 3; read-out: t1/2 distribution (converted)
Assignment: determine reported half-life for the given compounds.
One number for each entry, in min.

C[C@H]1[C@@H](O)O[C@@H]2O[C@@]3(C)CC[C@H]4[C@H](C)CC[C@@H]1[C@@]24OO3 [DHA, dihydroartemisinin]: 4.8

**Query** Please supply the value of reported half-life for the item C[C@H]1[C@H](OC(=O)CCC(=O)O)O[C@@H]2O[C@@]3(C)CC[C@H]4[C@H](C)CC[C@@H]1[C@@]24OO3 [AS, artesunate]
**Result** 7.2

----------
Procedure Text: Pharmacokinetics of AS and DHA in rat plasma after single and multiple intravenous AS injections (automated blood sampler, LC-MS/MS)
Format: in vivo, Sprague-Dawley rats
Details: male, Sprague-Dawley, rat, plasma, iv, 20 mg/kg, Chinese formulation (AS/NaHCO3), 20 mg/kg i.v. daily for 3 days, male rats, Period 2, Day 1
Recorded Metric: clearance (mL/min/kg)
Answers are plain numbers, in mL/min/kg.

**Query** Name the recorded clearance of the compound listed here: C[C@H]1[C@H](OC(=O)CCC(=O)O)O[C@@H]2O[C@@]3(C)CC[C@H]4[C@H](C)CC[C@@H]1[C@@]24OO3 [AS, artesunate]
**Result** 360

----------
Procedure Text: Pharmacokinetics of AS and DHA in rat plasma after single and multiple intravenous AS injections (automated blood sampler, LC-MS/MS)
Assay type: in vivo, Sprague-Dawley rats
Details: male, Sprague-Dawley, rat, plasma, iv, 20 mg/kg, Chinese formulation (AS/NaHCO3), 20 mg/kg i.v. daily for 3 days, male rats, Period 2, Day 1; read-out: t1/2 distribution (converted)
Answer each item with its documented half-life.
Answers are plain numbers, in min.

C[C@H]1[C@H](OC(=O)CCC(=O)O)O[C@@H]2O[C@@]3(C)CC[C@H]4[C@H](C)CC[C@@H]1[C@@]24OO3 [AS, artesunate]: 4.8

We now examine a further compound.
**Query** Give recorded half-life. C[C@H]1[C@@H](O)O[C@@H]2O[C@@]3(C)CC[C@H]4[C@H](C)CC[C@@H]1[C@@]24OO3 [DHA, dihydroartemisinin]
**Result** 7.2

----------
Procedure Text: Pharmacokinetics of AS and DHA in rat plasma after single and multiple intravenous AS injections (automated blood sampler, LC-MS/MS)
Format: in vivo, Sprague-Dawley rats
Details: male, Sprague-Dawley, rat, plasma, iv, 20 mg/kg, WRAIR formulation (AS/0.3M PBS Buffer), 20 mg/kg i.v. daily for 3 days, male rats, Period 2, Day 1
Recorded Metric: MRT

C[C@H]1[C@H](OC(=O)CCC(=O)O)O[C@@H]2O[C@@]3(C)CC[C@H]4[C@H](C)CC[C@@H]1[C@@]24OO3 [AS, artesunate]: 16.8 min

**Query** Annotate the compound C[C@H]1[C@@H](O)O[C@@H]2O[C@@]3(C)CC[C@H]4[C@H](C)CC[C@@H]1[C@@]24OO3 [DHA, dihydroartemisinin] with its measured MRT.
**Result** 24 min

----------
Procedure Text: Pharmacokinetics of AS and DHA in rat plasma after single and multiple intravenous AS injections (automated blood sampler, LC-MS/MS)
Assay type: in vivo, Sprague-Dawley rats
Details: male, Sprague-Dawley, rat, plasma, iv, 20 mg/kg, WRAIR formulation (AS/0.3M PBS Buffer), 20 mg/kg i.v. daily for 3 days, male rats, Period 2, Day 3; read-out: AUC0–3 h
Consider the following compounds; for each one, report its AUC(0-t).
Answers are plain numbers, in ng·h/mL.

C[C@H]1[C@@H](O)O[C@@H]2O[C@@]3(C)CC[C@H]4[C@H](C)CC[C@@H]1[C@@]24OO3 [DHA, dihydroartemisinin]: 1040

For the next question, use this compound.
**Query** State its AUC(0-t): C[C@H]1[C@H](OC(=O)CCC(=O)O)O[C@@H]2O[C@@]3(C)CC[C@H]4[C@H](C)CC[C@@H]1[C@@]24OO3 [AS, artesunate]
**Result** 670

----------
So I've got a bunch of molecules here, and I need their AUC(0-t) values.
Procedure Text: Pharmacokinetics of AS and DHA in rat plasma after single and multiple intravenous AS injections (automated blood sampler, LC-MS/MS);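 further: blood drawn through a jugular vein catheter by an automated sampling system, plasma drug levels measured by LC-MS/MS with positive electrospray ionization against standard curves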
Assay type: in vivo, Sprague-Dawley rats
Details: male, Sprague-Dawley, rat, plasma, iv, 20 mg/kg, Chinese formulation (AS/NaHCO3), 20 mg/kg i.v. daily for 3 days, male rats, Period 1, Day 1; read-out: AUC0–3 h
Give bare numbers, in ng·h/mL.

C[C@H]1[C@H](OC(=O)CCC(=O)O)O[C@@H]2O[C@@]3(C)CC[C@H]4[C@H](C)CC[C@@H]1[C@@]24OO3 [AS, artesunate]: 868

**Query** Please list AUC(0-t) recorded for the molecule C[C@H]1[C@@H](O)O[C@@H]2O[C@@]3(C)CC[C@H]4[C@H](C)CC[C@@H]1[C@@]24OO3 [DHA, dihydroartemisinin]
**Result** 1570
